I'd appreciate it if you could supply MRC5 IC50 values for the items below.
tested on: Recombinant human IL-1β (BioLegend 579404) (human, UniProt P01584 117-269)
procedure text: cell-based or functional assay
Starred links: 1 amine or outer side, 2 acyl side, 3 side chain; linkers in the order of their positions; H or OH if unused. Non-standard residues stand in square brackets, D forms with d. No end group written: not given here. dProc3CH24Pal = (2R,3S)-3-(4-pyridylmethyl)pyrrolidine-2-carboxylic acid, O=C([C@H]1[C@@H](Cc2ccncc2)CCN1[*:1])[*:2]; dPyrimA = (2R)-2-amino-3-pyrimidin-5-yl-propanoic acid, O=C([C@@H](Cc1cncnc1)N[*:1])[*:2]; Trp(4-Cl)(βS-Me) = C[C@@H](c1c[nH]c2cccc(Cl)c12)[C@H](N)C(=O)O; dPro(4R-(4-pyridylmethyl)) = O=C(O)[C@H]1C[C@@H](Cc2ccncc2)CN1; Trp(βS-Me,4-F) = C[C@@H](c1c[nH]c2cccc(F)c12)[C@H](N)C(=O)O; Bip(4'-COOH) = N[C@@H](Cc1ccc(-c2ccc(C(=O)O)cc2)cc1)C(=O)O; Ala(1-bicyclo(1.1.1)pentyl) = N[C@@H](CC12CC(C1)C2)C(=O)O; dPro(4R-Bzl(4-F)) = O=C(O)[C@H]1C[C@@H](Cc2ccc(F)cc2)CN1; 1Nal(3S-Me) = C[C@@H](c1cccc2ccccc12)[C@H](N)C(=O)O; Ala(pyrimidin-5-yl) = N[C@@H](Cc1cncnc1)C(=O)O; Phe(4-COOH) = N[C@@H](Cc1ccc(C(=O)O)cc1)C(=O)O; Pro(cis-4-F) = O=C(O)[C@@H]1C[C@H](F)CN1; Ala(4-THP) = N[C@@H](CC1CCOCC1)C(=O)O; cisHyp = O=C(O)[C@@H]1C[C@H](O)CN1; 4Pal = N[C@@H](Cc1ccncc1)C(=O)O; αMeD = C[C@](N)(CC(=O)O)C(=O)O; αMeK = C[C@](N)(CCCCN)C(=O)O; Dab = NCC[C@H](N)C(=O)O; Aib = CC(C)(N)C(=O)O
Your answer is read as nM, so omit the unit and give the number.

Looking up cyclo([Bip(4'-COOH)][4Pal][Phe(4-COOH)]G[Pro(cis-4-F)][1Nal(3S-Me)][Aib]EW[Aib][Ala(pyrimidin-5-yl)]Q[Dab]G[dPro(4R-Bzl(4-F))]) (ring closure inferred; not fully specified (bridges); printed as Bip4CO2H-4Pal-Phe4COOH-G-Proc4F-sbMe1Nal-Aib-E-W-Aib-PyrimAla-Q-Dab-G-dProc4Bn4F, cyclic (macrolactam)) [SEQ ID NO: 149] , I see its MRC5 IC50 listed as 0.024

The reported MRC5 IC50 of the binder [Bip(4'-COOH)][4Pal][Phe(4-COOH)]G[Pro(cis-4-F)][Trp(βS-Me,4-F)][Aib]SW[Aib][dPyrimA]Q[Dab]G[dProc3CH24Pal] (lactam (positions not given here); also: macrolactam, ring places not given here) [SEQ ID NO: 233] was 0.03

Form field MRC5 IC50, entry cyclo([Bip(4'-COOH)][4Pal][Phe(4-COOH)]G[cisHyp][Trp(βS-Me,4-F)][Aib]SW[αMeD][Ala(4-THP)]QSG[dPro(4R-(4-pyridylmethyl))]) (ring closure inferred; not fully specified (bridges); printed as Bip4CO2H-4Pal-Phe4COOH-G-Proc4OH-SbMeW4F-Aib-S-W-aMeD-AlaTHP4-Q-S-G-dProc4CH24Pal, cyclic (macrolactam)) [SEQ ID NO: 199] : 0.032

The binder cyclo([Bip(4'-COOH)][4Pal][Phe(4-COOH)]G[Pro(cis-4-F)][Trp(4-Cl)(βS-Me)][Aib]EW[Aib][Ala(pyrimidin-5-yl)]Q[Dab]G[dPro(4R-Bzl(4-F))]) (ring closure inferred; not fully specified (bridges); printed as Bip4CO2H-4Pal-Phe4COOH-G-Proc4F-sbMeW4Cl-Aib-E-W-Aib-PyrimAla-Q-Dab-G-dProc4Bn4F, cyclic (macrolactam)) [SEQ ID NO: 148] showed MRC5 IC50 equal to 0.032

MRC5 IC50 in this record for cyclo([Bip(4'-COOH)][Ala(1-bicyclo(1.1.1)pentyl)][Phe(4-COOH)]G[Pro(cis-4-F)][Trp(βS-Me,4-F)][Aib]SW[αMeK][Ala(pyrimidin-5-yl)]Q[Dab]G[dPro(4R-Bzl(4-F))]) (ring closure inferred; not fully specified (bridges); printed as Bip4CO2H-AlaPent-Phe4COOH-G-Proc4F-SbMeW4F-Aib-S-W-aMeK-PyrimAla-Q-Dab-G-dProc4Bn4F, cyclic (macrolactam)) [SEQ ID NO: 144] : 0.031
